assay: Half-life in chemical and enzymatic hydrolysis, in buffer at pH 1.3; type: ADME
Reported endpoint: half-life (h)

[[record]]
mol = "CC(C)(C)C(=O)Oc1ccc(C[C@@H]2NC(=O)COC2=O)cc1O"
reported_endpoint = "half-life"
unit_label = "h"
test_result = 52.3

